target: Histone deacetylase 1 (Homo sapiens); test: Inhibition of human recombinant HDAC1 using Fluor de Lys as substrate after 2 hrs by fluorescence method
Sequence (Q13547 whole entry): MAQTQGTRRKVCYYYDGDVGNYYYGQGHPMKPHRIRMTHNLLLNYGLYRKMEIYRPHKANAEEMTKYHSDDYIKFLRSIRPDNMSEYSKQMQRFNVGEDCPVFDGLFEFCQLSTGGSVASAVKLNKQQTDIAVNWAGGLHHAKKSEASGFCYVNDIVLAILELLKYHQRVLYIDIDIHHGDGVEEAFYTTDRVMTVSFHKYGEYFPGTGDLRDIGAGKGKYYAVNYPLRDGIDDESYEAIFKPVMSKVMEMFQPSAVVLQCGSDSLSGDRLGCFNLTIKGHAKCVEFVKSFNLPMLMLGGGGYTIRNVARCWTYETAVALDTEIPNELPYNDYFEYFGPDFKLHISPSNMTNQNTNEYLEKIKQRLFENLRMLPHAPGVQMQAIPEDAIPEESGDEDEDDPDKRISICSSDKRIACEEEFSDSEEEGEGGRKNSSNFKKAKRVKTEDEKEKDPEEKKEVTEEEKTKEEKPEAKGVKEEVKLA
pKi: −log10 of the molar value.
We begin with a simple list: items and their reported pKi.
Quantity measured: pKi

>>> endpoint_result("Cc1ccc(Nc2c(NCCCCCC(=O)NO)c(=O)c2=O)cc1")
10.24
>>> endpoint_result("O=C(CCCCCNc1c(Nc2ccccc2)c(=O)c1=O)NO")
9.54
>>> endpoint_result("CN(C)c1ccc(Nc2c(NCCCCCC(=O)NO)c(=O)c2=O)cc1")
9.04
>>> endpoint_result("O=C(CCCCCCNc1c(Nc2ccccc2)c(=O)c1=O)NO")
9.25
